Cited source for all entries: PubChem BioAssay (NCI)

Listed below: growth values for each entry.
# Tested on: HT29 colon
# protocolDetails: NCI-60 one-dose screen, 48 h (100 = growth as untreated, 0 = no growth, -100 = all killed)
# recordedConditions: 10 µM unless noted
This is part of a sample that, as a whole, favours compounds with a hit. Of some 83,000 tested, about 20% had one in any assay.
Give just the number in %; leave the unit off.

// field: growth; key: COc1ccc(/C=C/C(=O)c2ccc3cc(OC)c(OC)cc3c2)cc1OC ; value = 6.78

// field: growth; key: Cc1sc2ncnc(Sc3nc4ccccc4[nH]3)c2c1C ; value = -64.4

// field: growth; key: COc1ccc(C2=Nn3c(NN)nnc3SC2)cc1 ; value = 83.8

// field: growth; key: O=C(Nc1ccc(N2CCNCC2)cn1)c1[nH]ncc1Nc1ncnc2sc3c(c12)CCC3 ; value = -42.3

// field: growth; key: COc1ccc(/C=C/C(=O)c2ccc(Nc3nc(NCCO)nc(Nc4ccc(Cl)cc4)n3)cc2)cc1 ; value = 40

// field: growth; key: COc1cc(/C=C/C(=O)N2c3ccccc3CC2C)c(OC)c2c1OCO2 (stereo not given) ; value = 83.8

// field: growth; key: O=C(Nc1ccc(I)cc1F)c1cc(Br)ccc1O ; value = 30.4

// field: growth; key: O=C(/C=C/c1ccc(C(F)(F)F)cc1)c1ccc(Nc2nc(NCCO)nc(N3CCOCC3)n2)cc1 ; value = 7.26

// field: growth; key: COc1ccc(CCN2C(=O)CCSC2=S)cc1 ; value = 18

// field: growth; key: COc1ccc(S(=O)(=O)N(Cc2ccc3c(n2)C=CC(C)(C)O3)C2CCC2)cc1OC ; value = 3.8

----------
# Test system: SK-MEL-2 melanoma
# protocolDetails: NCI-60 one-dose screen, 48 h (100 = growth as untreated, 0 = no growth, -100 = all killed)
# recordedConditions: 10 µM unless noted
This is part of a sample that, as a whole, favours compounds with a hit. Of some 83,000 tested, about 20% had one in any assay.
assayMetric: growth (%)
Give just the number in %; leave the unit off.

Here is how some compounds turned out for growth.
>  <compound>
Brc1ccc(Oc2ccc(Nc3ncnc4onc(-c5ccccc5)c34)cc2)cc1

>  <endpointResult>
110

$$$$
>  <compound>
O=c1oc2ccc(I)cc2c(=O)n1-c1ccc(F)cc1F

>  <endpointResult>
-17.3

$$$$
>  <compound>
COc1cc(CNC(=O)c2ccsc2Nc2ccnc(C(F)(F)F)c2)ccc1O

>  <endpointResult>
103

$$$$

// field: growth; key: COc1ccc(C2=C(c3cccc(OC)c3)C(=O)c3ccc(C)nc3C2=O)cc1 ; value = 42.8

// field: growth; key: CNCCNc1nc2ccccc2c2c(=O)c3cccc(C)c3sc12 ; value = 91.4

----------
# Tested on: HCC-2998 colon
# protocolDetails: NCI-60 one-dose screen, 48 h
# recordedConditions: 10 µM unless noted
This is part of a sample that, as a whole, favours compounds with a hit. Of some 83,000 tested, about 20% had one in any assay. Calls of active or inactive are those of the source. Rule for the calls: active = growth percent below 10; inactive = the rest.
Valid outcomes are listed here; reply with one: label 1 (active), label 0 (inactive)

Some solved cases for reference:
>  <compound>
CCOC(=O)C1=C(C)N=c2s/c(=C\c3ccccc3O)c(=O)n2C1c1ccc(OC)c2ccccc12 (centres undefined)

>  <className>
label 1

$$$$
>  <compound>
O=c1c(-c2nc3ccccc3[nH]2)cc2ccccc2n1Cc1cn(Cc2ccccc2Cl)nn1

>  <className>
label 0

$$$$
>  <compound>
CC(=Nc1ccccc1)C1=C(O)C(Cc2ccc(F)cc2)NC1=O (centres undefined)

>  <className>
label 0

$$$$
>  <compound>
O=C(N=Nc1c(O)[nH]c2ccccc12)c1oc2ccccc2c1CN1CCN(c2ccccc2)CC1

>  <className>
label 0

$$$$
>  <compound>
CCCN1C(=O)N(CCC)C2C1NN=c1s/c(=C3\C(=O)N(C(C)C)c4ccccc43)c(=O)n12 (centres undefined)

>  <className>
label 0

$$$$

Request: What did this assay record as the result for COc1cc(C(=O)Nc2ccc(-c3nc4ccccc4[nH]3)cc2)cc(OC)c1OC ?
Response: label 0

Request: What did this assay record as the result for O=c1nc2sc3nc4ccccc4cc3cc-2s1 ?
Response: label 0

Request: What did this assay record as the result for NCCOc1ncccc1/C=C1\c2ccccc2-c2ccc([N+](=O)[O-])cc21 ?
Response: label 1

Request: What did this assay record as the result for Nc1n[nH]c2ccc([C@@H]3Nc4ccc5[nH]ncc5c4[C@H]4[C@H]5CCC(C5)[C@H]43)cc12 ?
Response: label 0

----------
# System: A498 renal
# protocolDetails: NCI-60 one-dose screen, 48 h
# recordedConditions: 10 µM unless noted
This is part of a sample that, as a whole, favours compounds with a hit. Of some 83,000 tested, about 20% had one in any assay. Activity calls are given as the source filed them. Rule for the calls: active = growth percent below 10; inactive = the rest.
Valid outcomes are listed here; reply with one: true (1) = active, false (0) = inactive

Some solved cases for reference:
>  <compound>
O=C1c2cc(Br)ccc2Oc2cc([N+](=O)[O-])ccc2N1c1ccc(I)cc1F

>  <className>
false (0)

$$$$
>  <compound>
Cc1ccc(C(=O)c2oc3ccc4c(C)cc(=O)oc4c3c2C)cc1

>  <className>
false (0)

$$$$
>  <compound>
O=c1c2cc(F)ccc2sc2c(Nc3ccncc3)nc3ccccc3c12

>  <className>
false (0)

$$$$

Request: What did this assay record as the result for COc1cc(C2CC(c3ccc(Nc4nc(NCCO)nc(N5CCOCC5)n4)cc3)=NN2c2cc(Cl)cc(Cl)c2)cc(OC)c1OC (stereo not given) ?
Response: false (0)

Request: What did this assay record as the result for O=C(CSc1ccc2nnc(-c3cccc(F)c3)n2n1)Nc1ccc2c(c1)OCO2 ?
Response: false (0)

Request: What did this assay record as the result for Cc1ccc(S(=O)(=O)c2c(COC(=O)c3cccc(C)c3)c(-c3ccccc3)nn2C)cc1 ?
Response: false (0)

Request: What did this assay record as the result for COc1cc2nc(-c3cnc(N(C)C)nc3)nc(NC3CCN(Cc4ccccc4)CC3)c2cc1OC ?
Response: false (0)

Request: What did this assay record as the result for COc1cc2nc(NC3CCCC3)nc(NC3CCN(C(C)C)CC3)c2cc1OC ?
Response: false (0)

Request: What did this assay record as the result for CCc1ccc(CNCC(O)c2ccccc2)cc1 (stereo not given) ?
Response: false (0)

Request: What did this assay record as the result for C#CCn1cc(C=C2C(=O)NC(=O)NC2=O)c2cc(Cl)ccc21 ?
Response: true (1)

----------
# Tested on: U251 CNS
# protocolDetails: NCI-60 one-dose screen, 48 h (100 = growth as untreated, 0 = no growth, -100 = all killed)
# recordedConditions: 10 µM unless noted
This is part of a sample that, as a whole, favours compounds with a hit. Of some 83,000 tested, about 20% had one in any assay.
Decide using growth: a value greater than or equal to 50% is 1.0, a smaller one is 0.0.

Some solved cases for reference:
>  <compound>
COc1ccccc1C(=O)O/N=C(\N)Cc1cccc2ccccc12

>  <measuredOn>
U251 CNS

>  <className>
1.0

$$$$
>  <compound>
O=C1c2cc(Cl)ccc2Oc2cc([N+](=O)[O-])ccc2N1c1ccc(F)cc1F

>  <measuredOn>
U251 CNS

>  <className>
1.0

$$$$
>  <compound>
O=c1oc2ccc(F)cc2c(=O)n1-c1ccc(Cl)cc1F

>  <measuredOn>
U251 CNS

>  <className>
0.0

$$$$
>  <compound>
O=c1[nH]nnc2c1ncn2C1OC(CO)C(O)C1O (stereo unspecified)

>  <measuredOn>
U251 CNS

>  <className>
1.0

$$$$
>  <compound>
COc1cc(C2C(C#N)=C(N)OC3=C2C(=O)c2ccccc2C3=O)cc(OC)c1OC (stereo unspecified)

>  <measuredOn>
U251 CNS

>  <className>
0.0

$$$$
>  <compound>
C1=CC2(C=C1)OC21CCC2(C=CC3(C2)OC3C2CCCCC2)CC1 (stereo unspecified)

>  <measuredOn>
U251 CNS

>  <className>
1.0

$$$$

Request: Is reported growth greater than or equal to 50% here: C=C1C(=O)O[C@H]2[C@H]1CC/C(COC(=O)/C=C\C(=O)O)=C\CC[C@@]1(C)O[C@@H]21
Response: 1.0

Request: Is reported growth greater than or equal to 50% here: COc1ccc(-c2cn[nH]c2-c2ccc(OC)c(O)c2)cc1
Response: 1.0

Request: Is reported growth greater than or equal to 50% here: O=c1cc(-c2ccccc2)oc2cc(OCc3cn(Cc4ccc(F)cc4)nn3)cc(OCc3cn(Cc4ccc(F)cc4)nn3)c12
Response: 0.0

----------
# System: KM12 colon
# protocolDetails: NCI-60 one-dose screen, 48 h (100 = growth as untreated, 0 = no growth, -100 = all killed)
# recordedConditions: 10 µM unless noted
The panel holds about 83,000 compounds, 20% with a hit somewhere; the sample as a whole holds those more often.
Listed below: growth values for each entry.
Give just the number in %; leave the unit off.

Here is how some compounds turned out for growth.
>  <compound>
COc1nc2c(c(=O)n1C)N=C1c3ccccc3C(=O)C1C(c1ccccc1)N2 (stereo not given)

>  <endpointUnit>
%

>  <growth>
79.3

$$$$
>  <compound>
O=C(CSc1ccc2nnc(-c3cccc(F)c3)n2n1)Nc1ccc2c(c1)OCO2

>  <endpointUnit>
%

>  <growth>
73.5

$$$$
>  <compound>
O=C(Nc1ccc(Br)cc1F)c1cc(F)ccc1O

>  <endpointUnit>
%

>  <growth>
0.627

$$$$
>  <compound>
COc1cccc(/C(C#N)=C/c2nc3c(N4CCOCC4)nc(Cl)nc3n2C)c1

>  <endpointUnit>
%

>  <growth>
16.2

$$$$
>  <compound>
Cc1ccc(C(=O)c2oc3ccc4c(C)cc(=O)oc4c3c2C)cc1

>  <endpointUnit>
%

>  <growth>
17.8

$$$$

// field: growth; key: O=S1(=O)CCN(Cc2ccccc2)CC1 ; value = 93.9

// field: growth; key: COc1cccc(/C=C/C(=O)c2c(C)nc3ccccc3c2/C=C/c2ccccc2)c1OC ; value = 26.6

// field: growth; key: CCOC(=O)c1sc(-c2ccc(OS(=O)(=O)c3ccccc3[N+](=O)[O-])c(C=O)c2)nc1C ; value = 96.2

// field: growth; key: Clc1ccc(-c2nnc(COc3ccc(C4=NNC(c5ccco5)C4)cc3)o2)cc1 (stereo not given) ; value = 70.9

// field: growth; key: CC(C)CCNCC(O)Cn1c2ccccc2c2ccccc21 (stereo not given) ; value = 15.7
